All figures here come from ChEMBL document CHEMBL4354813.

# assay comment: Metabolic lability in mouse liver microsomes incubated up to 20 mins by LC-MS/MS analysis
readout label: metabolized at 20 min (%)
// return numeric value only (unit: %, not printed)

**Query** Which measured metabolized at 20 min value corresponds to CC(C)(C)OC(=O)n1c2c(c3ccccc31)C[C@H]1C(=O)N3C[C@@H](CC(=O)O)C[C@H]3[C@@H]2N1C(=O)CC1CCC(F)(F)CC1 ?
**Result** 5

----------
# assay comment: Efflux ratio in human Caco2/TC7 cells at pH 7.4 in presence of 0.5% BSA
# Assay type: ADME, cell-based
# assay conditions: Caco-2, pH 7.4
readout label: efflux ratio

**Query** Which measured efflux ratio value corresponds to CC(C)(C)OC(=O)n1c2c(c3ccccc31)C[C@H]1C(=O)N3C[C@@H](CC(=O)O)C[C@H]3[C@@H]2N1C(=O)CC1CCC(F)(F)CC1 ?
**Result** 247

----------
# assay comment: Cmax in Wistar rat at 10 mg/kg, po administered as single dose measured up to 24 hrs ESI-LC/MS-MS analysis
# Format: ADME, organism-based
# Design: dose 10 mg/kg, route oral
# assay conditions: in vivo
readout label: Cmax (ng/mL)
// return numeric value only (unit: ng/mL, not printed)

**Query** Which measured Cmax value corresponds to CC(C)(C)OC(=O)n1c2c(c3ccccc31)C[C@H]1C(=O)N3C[C@@H](CC(=O)O)C[C@H]3[C@@H]2N1C(=O)CC1CCC(F)(F)CC1 ?
**Result** 106

----------
# assay comment: Tmax in mouse at 10 mg/kg, po
# assay conditions: in vivo
readout label: Tmax
Just the number plus its unit, please.

**Query** Which measured Tmax value corresponds to CO[C@H]1/C=C/O[C@@]2(C)Oc3c(C)c(O)c4c(O)c(c(/C=N/N5CCN(C)CC5)c(O)c4c3C2=O)NC(=O)/C(C)=C\C=C\[C@H](C)[C@H](O)[C@@H](C)[C@@H](O)[C@@H](C)[C@H](OC(C)=O)[C@@H]1C ?
**Result** 1.5 h

----------
For each of the molecules below, state its pEC50.
# assayed target: Glucagon-like peptide 1 receptor (Homo sapiens)
# assay comment: Positive allosteric modulator activity at human GLP-1R expressed in PSC-HEK293 cells in presence of EC20 level of GLP1(9-36)NH2 incubated for 30 mins by HTRF cAMP assay
# Format: functional, cell-based
Convention used: pEC50 is expressed as -log10 of the molar concentration.

**Query** Which measured pEC50 value corresponds to CC(C)(C)OC(=O)n1c2c(c3ccccc31)C[C@H]1C(=O)N3C[C@@H](CC(=O)O)C[C@H]3[C@@H]2N1C(=O)CC1CCC(F)(F)CC1 ?
**Result** 8.30

**Query** // next record CC(O)CCN1C[C@H]2c3c(c4ccccc4n3C(=O)OC(C)(C)C)C[C@@H](C1=O)N2C(=O)CC1CCC(F)(F)CC1 (stereo partly drawn)
**Result** 8.82

**Query** // next record CC(C)(C)OC(=O)n1c2c(c3ccccc31)C[C@H]1C(=O)NC[C@@H]2N1C(=O)CC1CCC(F)(F)CC1
**Result** 8.30

----------
# assayed target: Glucagon-like peptide 1 receptor (Homo sapiens, UniProt P43220)
# Sequence (P43220 whole entry): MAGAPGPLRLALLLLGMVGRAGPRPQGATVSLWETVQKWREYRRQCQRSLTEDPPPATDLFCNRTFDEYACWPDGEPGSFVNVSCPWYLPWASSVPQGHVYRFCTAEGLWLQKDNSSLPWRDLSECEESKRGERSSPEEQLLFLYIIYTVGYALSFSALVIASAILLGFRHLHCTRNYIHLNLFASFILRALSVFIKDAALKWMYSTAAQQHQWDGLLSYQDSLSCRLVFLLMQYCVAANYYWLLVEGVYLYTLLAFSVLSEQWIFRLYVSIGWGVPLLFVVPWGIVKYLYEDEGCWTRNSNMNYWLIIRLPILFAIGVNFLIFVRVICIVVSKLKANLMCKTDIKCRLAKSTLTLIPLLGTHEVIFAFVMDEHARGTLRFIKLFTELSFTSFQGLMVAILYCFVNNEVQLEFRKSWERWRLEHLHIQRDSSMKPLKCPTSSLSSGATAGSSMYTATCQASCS
# assay comment: Positive allosteric modulator activity at GLP-1R in human 1.1B4 cells in presence of EC20 level of GLP1(9-36)NH2 incubated for 30 mins by HTRF cAMP assay
# Format: functional, cell-based
# assay conditions: read-out: EC50
For each of the compounds below, state its pEC50.
Convention used: pEC50 is expressed as -log10 of the molar concentration.

**Query** Which measured pEC50 value corresponds to CC(C)(C)OC(=O)n1c2c(c3ccccc31)C[C@H]1C(=O)N3C[C@@H](CC(=O)O)C[C@H]3[C@@H]2N1C(=O)CC1CCC(F)(F)CC1 ?
**Result** 6.89

**Query** // next record CC(O)CCN1C[C@H]2c3c(c4ccccc4n3C(=O)OC(C)(C)C)C[C@@H](C1=O)N2C(=O)CC1CCC(F)(F)CC1 (some centres not stated)
**Result** 7.40
